Reported IC50 against mitochondrial RNA-polymerase (POLRMT) (Mus musculus), gathered from multiple publications, appears below.

Entry Cc1ccsc1-c1cc(=O)oc2cc(O[C@H](C)C(=O)N3CCCCC3)ccc12 , IC50 reported as 20 to 100 nM

Entry C[C@@H](Oc1ccc2c(-c3ccc(F)cc3Cl)ccnc2c1)C(=O)N1CCC[C@H](C#N)C1 , IC50 reported as 100 to 1000 nM

Entry COC(=O)C(C)Oc1ccc2c(-c3ccccc3)cc(=O)oc2c1 (stereo not shown) , IC50 reported as 100 to 1000 nM

Entry CCN(CC)C(=O)COc1ccc2c(-c3ccccc3)cc(=O)oc2c1 , IC50 reported as 1000 to 10000 nM

Entry CC(Oc1ccc2c(-c3ccc(F)cc3Cl)cc(=O)oc2c1)C(=O)N1CCCC(C)(C(=O)O)C1 (stereo not shown) , IC50 reported as < 20 nM

Entry COc1cccc(Cl)c1-c1ccnc2cc(O[C@H](C)C(=O)N3CCC[C@H](CC(=O)O)C3)ccc12 , IC50 reported as 1000 to 10000 nM

Entry CC(Oc1ccc2c(-c3ccccc3)cc(=O)oc2c1)C(=O)Nc1ccc(CCCO)cc1 (stereo not shown) , IC50 reported as 100 to 1000 nM

Entry CC(C)OC(=O)C(C)Oc1ccc2c(-c3ccccc3Br)cc(=O)oc2c1 (stereo not shown) , IC50 reported as 20 to 100 nM

Entry C[C@@H](Oc1ccc2c(-c3ccccc3Cl)cc(Cl)nc2c1)C(=O)N1CCN(C(=O)C2CC2)CC1 , IC50 reported as 100 to 1000 nM

Entry CCOC(=O)[C@H]1CCCN(C(=O)C(C)Oc2ccc3c(-c4ccccc4Cl)cc(=O)oc3c2)C1 (stereo partly shown) , IC50 reported as < 20 nM

Entry C[C@@H](Oc1ccc2c(-c3ccc(F)cc3Cl)cc(=O)oc2c1)C(=O)N1CCN(C(=O)CCl)CC1 , IC50 reported as < 20 nM

Entry Cc1ccccc1-c1cc(=O)oc2cc(OC(C)C(=O)N3CCC(F)(F)CC3)ccc12 (stereo not shown) , IC50 reported as 20 to 100 nM

Entry CC(Oc1cc2oc(=O)cc(-c3ccccc3)c2cc1Cl)C(=O)N1CCCC(C(=O)O)C1 (stereo not shown) , IC50 reported as 100 to 1000 nM

Entry C[C@@H](Oc1ccc2c(-c3ccccc3)ccnc2c1)C(=O)N1CCC[C@H](C(=O)O)C1 , IC50 reported as 100 to 1000 nM

Entry COC(=O)COc1ccc2c(-c3ccccc3)cc(=O)oc2c1C , IC50 reported as 1000 to 10000 nM

Entry COC(=O)C(C)Oc1cc2oc(=O)cc(-c3ccccc3)c2cc1Cl (stereo not shown) , IC50 reported as 100 to 1000 nM
